- target_of_assay: T1, ARS2^147–270+494–763 (human, UniProt Q9BXP5-4 147-270; Q9BXP5-4 494-763)
- T1 construct: human ARS2 (SRRT) isoform-e, residues 147-270, cloned into pETM11; human ARS2 (SRRT) isoform-e, residues 494-763 (lacks the RRM domain), cloned for co-expression into pDUET and pET15b; Lacks the unstructured regions and the RRM domain; source: E. coli Rosetta 2, two fragments co-expressed, purified; not shown: His6, N-terminal, cleaved
- T1 sequence (looked up) 1: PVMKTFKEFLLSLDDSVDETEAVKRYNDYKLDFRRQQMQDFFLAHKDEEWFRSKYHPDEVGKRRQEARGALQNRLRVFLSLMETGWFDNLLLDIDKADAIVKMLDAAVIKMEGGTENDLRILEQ
- T1 sequence (looked up) 2: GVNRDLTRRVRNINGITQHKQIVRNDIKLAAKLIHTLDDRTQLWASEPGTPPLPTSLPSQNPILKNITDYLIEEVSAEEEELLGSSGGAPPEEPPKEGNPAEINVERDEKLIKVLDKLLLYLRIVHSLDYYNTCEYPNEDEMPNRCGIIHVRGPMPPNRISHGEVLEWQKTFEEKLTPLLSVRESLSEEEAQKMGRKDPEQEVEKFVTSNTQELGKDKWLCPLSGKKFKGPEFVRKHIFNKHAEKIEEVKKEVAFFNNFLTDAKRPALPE
- method_description: ITC; MicroCal ITC200, 25 °C, ARS2 construct with FARB; not marked high salt: 20 mM HEPES, 120 mM, 2 mM TCEP pH 7.8; single-site fit
- condition_info: both partners purified
measurement_type: pKd
Kindly note that pKd refers to -log10 of the concentration in mol/L and answer with the value alone.

**Q:** Which measured pKd value corresponds to DELEEGEIRSDSE (FLASH (FLICE-associated huge protein), residues 931-943; also called FLASH^931–943; source: synthetic peptide, bought: GeneScript) [FARB (FLASH–ARS2-binding region) peptide of FLASH, residues 931–943] ?
**A:** 6.30
